- Tested on: Sprague Dawley (SD) rats
- assay-procedure: Acute food intake in ad libitum fed rats after a single subcutaneous administration;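 also: food intake monitored in the HM2 system, three rats per cage kept on a reversed light cycle, with food and water freely available after the subcutaneous dose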
- Format: in vivo, rat
- condition-label: Table 6a, rat, single administration, 0-24 hr
Starred links: 1 amine or outer side, 2 acyl side, 3 side chain; linkers in the order of their positions; H or OH if unused. Non-standard residues stand in square brackets, D forms with d. Groups on a side chain read outwards from the residue. *: point of attachment. Butyryl(4-SO2NHCO(CH2)16Tz) = O=C(CCCCCCCCCCCCCCCCc1nnn[nH]1)NS(=O)(=O)CCCC(=O)*; C20 diacid = O=C(O)CCCCCCCCCCCCCCCCCCC(=O)*; C18 diacid = O=C(O)CCCCCCCCCCCCCCCCC(=O)*; γGlu = O=C(O)[C@H](CCC(=O)[*:2])N[*:1]; εLys = N[C@@H](CCCCN[*:1])C(=O)[*:2]; Trx = NC[C@H]1CC[C@H](C(=O)O)CC1; AEEA = NCCOCCOCC(=O)O; Aib = CC(C)(N)C(=O)O
measurement-kind: Food intake relative to vehicle (%) 0-24 hr, 10 nmol/kg

1) H-H[Aib]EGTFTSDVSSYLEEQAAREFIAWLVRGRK([AEEA-AEEA-γGlu-C18 diacid])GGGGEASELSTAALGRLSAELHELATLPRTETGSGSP-NH2 [Compound 0111]; 28
2) H-H[Aib]EGTFTSDVSSYLEGQAAK([εLys-AEEA-AEEA-γGlu-C18 diacid])EFIAWLVRGRGGGEASELSTAALGRLSAELHELATLPRTETGSGSP-NH2 [Compound 0044]; 40
3) H-H[Aib]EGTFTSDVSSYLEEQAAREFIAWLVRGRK(Butyryl(4-SO2NHCO(CH2)16Tz))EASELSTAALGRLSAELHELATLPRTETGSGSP-NH2 [Compound 0103]; 80
4) H[Aib]EGTFTSDVSSYLEEQAARK([γGlu-C18 diacid])FIAWLVRGRK([γGlu-C18 diacid])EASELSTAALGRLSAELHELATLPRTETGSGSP-NH2 [Compound 0131]; 70
5) H-H[Aib]EGTFTSDVSK([AEEA-AEEA-γGlu-C20 diacid])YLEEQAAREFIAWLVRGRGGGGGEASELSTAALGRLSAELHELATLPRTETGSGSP-NH2 [Compound 0565]; 39
6) H-H[Aib]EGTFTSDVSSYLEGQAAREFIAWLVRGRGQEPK([AEEA-AEEA-γGlu-C18 diacid])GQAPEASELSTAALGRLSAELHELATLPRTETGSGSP-NH2 [Compound 0084]; 44
7) H-H[Aib]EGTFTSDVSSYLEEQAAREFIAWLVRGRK([εLys-AEEA-AEEA-γGlu-C20 diacid])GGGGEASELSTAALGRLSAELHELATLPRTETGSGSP-NH2 [Compound 0552]; 56
8) H-H[Aib]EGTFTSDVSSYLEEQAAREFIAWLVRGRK([AEEA-AEEA-γGlu-Trx-C20 diacid])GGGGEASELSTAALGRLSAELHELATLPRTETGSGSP-NH2 [Compound 0120]; 53
9) H-H[Aib]EGTFTSDVSSYLEEQAARK([εLys-AEEA-AEEA-γGlu-Trx-C20 diacid])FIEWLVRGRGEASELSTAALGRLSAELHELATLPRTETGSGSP-NH2 [Compound 0439]; 43
10) H[Aib]EGTFTSDVSSYLEEQAARK([AEEA-AEEA-γGlu-C18 diacid])FIAWLVRGRK([AEEA-AEEA-γGlu-C18 diacid])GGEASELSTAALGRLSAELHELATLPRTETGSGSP-NH2 [Compound 0116]; 83

---

- target-system: human GLP-1 receptor (Homo sapiens, UniProt P43220)
- Construct: expressed in transfected cells; host or cells: BHK (Baby Hamster Kidney) cells, clone BHK 467-12A KZ-10, stably transfected, with CRE-luciferase reporter
- Sequence (P43220 24-463): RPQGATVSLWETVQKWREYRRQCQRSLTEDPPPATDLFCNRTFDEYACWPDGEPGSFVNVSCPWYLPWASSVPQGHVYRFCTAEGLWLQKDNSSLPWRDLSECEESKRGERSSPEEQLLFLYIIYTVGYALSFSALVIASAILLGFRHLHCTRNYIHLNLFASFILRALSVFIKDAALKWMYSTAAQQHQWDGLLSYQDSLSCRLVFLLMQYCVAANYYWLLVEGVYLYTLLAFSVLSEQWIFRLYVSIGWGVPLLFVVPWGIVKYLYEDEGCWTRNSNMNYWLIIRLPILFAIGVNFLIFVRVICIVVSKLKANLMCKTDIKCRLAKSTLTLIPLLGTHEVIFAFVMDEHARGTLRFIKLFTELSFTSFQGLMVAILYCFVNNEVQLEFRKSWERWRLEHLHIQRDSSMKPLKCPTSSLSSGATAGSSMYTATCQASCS
- assay-procedure: Human GLP-1 receptor in vitro potency assay (CRE-luciferase reporter, BHK cells)
- Format: cell-based
- condition-label: Table 4a; BHK cells expressing human GLP-1R, CRE-Luc, 3 hours; read-out: Human GLP-1R potency [EC50 (pM)]
Starred links: 1 amine or outer side, 2 acyl side, 3 side chain; linkers in the order of their positions; H or OH if unused. Non-standard residues stand in square brackets, D forms with d. Groups on a side chain read outwards from the residue. *: point of attachment. Butyryl(4-SO2NHCO(CH2)16Tz) = O=C(CCCCCCCCCCCCCCCCc1nnn[nH]1)NS(=O)(=O)CCCC(=O)*; C20 diacid = O=C(O)CCCCCCCCCCCCCCCCCCC(=O)*; C18 diacid = O=C(O)CCCCCCCCCCCCCCCCC(=O)*; C16 diacid = O=C(O)CCCCCCCCCCCCCCC(=O)*; γGlu = O=C(O)[C@H](CCC(=O)[*:2])N[*:1]; Trx = NC[C@H]1CC[C@H](C(=O)O)CC1; AEEA = NCCOCCOCC(=O)O; Aib = CC(C)(N)C(=O)O
// returns NOT MET unless EC50 is strictly below 8 pM, in which case MET

1. H-H[Aib]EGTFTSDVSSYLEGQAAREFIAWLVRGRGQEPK([AEEA-AEEA-γGlu-C20 diacid])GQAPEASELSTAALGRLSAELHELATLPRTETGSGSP-NH2 [Compound 0529]; MET
2. H-HAEGTFTSDVSSYLEEK([AEEA-AEEA-γGlu-C20 diacid])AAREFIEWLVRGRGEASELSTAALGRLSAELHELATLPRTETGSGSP-NH2 [Compound 0474]; MET
3. H-H[Aib]EGTFTSDVSSYLEEQAAREFIAWLVRGRGK(Butyryl(4-SO2NHCO(CH2)16Tz))GGGASELSTAALGRLSAELHELATLPRTETGSGSP-NH2 [Compound 0145]; NOT MET
4. H-H[Aib]EGTFTSDVSSYLEGQAAREFIAWLVRGRGEGEGEK([AEEA-AEEA-γGlu-C18 diacid])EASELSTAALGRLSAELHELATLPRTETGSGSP-NH2 [Compound 0010]; MET
5. H-H[Aib]EGTFTSDVSSYLEGQAAK([AEEA-AEEA-γGlu-C18 diacid])EFIAWLVRGRGGQEPGQEPEASELSTAALGRLSAELHELATLPRTETGSGSP-NH2 [Compound 0019]; NOT MET
6. H-H[Aib]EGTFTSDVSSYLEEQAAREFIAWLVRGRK([AEEA-AEEA-γGlu-C20 diacid])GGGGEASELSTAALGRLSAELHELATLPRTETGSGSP-NH2 [Compound 0502]; NOT MET
7. H-H[Aib]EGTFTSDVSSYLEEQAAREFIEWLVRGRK([AEEA-AEEA-γGlu-Trx-C20 diacid])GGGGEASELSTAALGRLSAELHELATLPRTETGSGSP-NH2 [Compound 0503]; MET
8. H-H[Aib]EGTFTSDVSSYLEEQAARK([AEEA-AEEA-γGlu-C16 diacid])FIAWLVK([AEEA-AEEA-γGlu-C16 diacid])GRGGGEASELSTAALGRLSAELHELATLPRTETGSGSP-NH2 [Compound 0077]; MET
9. H-H[Aib]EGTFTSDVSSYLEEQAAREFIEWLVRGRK([AEEA-AEEA-γGlu-Trx-C20 diacid])EAEAEASELSTAALGRLSAELHELATLPRTETGSGSP-NH2 [Compound 0179]; NOT MET
10. H-H[Aib]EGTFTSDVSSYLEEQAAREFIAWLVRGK([AEEA-AEEA-γGlu-C18 diacid])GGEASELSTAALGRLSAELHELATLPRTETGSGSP-NH2 [Compound 0132]; MET

---

- target-system: human GLP-1 receptor (Homo sapiens)
- Construct: expressed in transfected cells; host or cells: BHK (Baby Hamster Kidney) cells, clone BHK 467-12A KZ-10, stably transfected, with CRE-luciferase reporter
- assay-procedure: Human GLP-1 receptor in vitro potency assay (CRE-luciferase reporter, BHK cells)
- Format: cell-based
- condition-label: Table 4a; BHK cells expressing human GLP-1R, CRE-Luc, 3 hours; read-out: Human GLP-1R potency [EC50 (pM)]
Starred links: 1 amine or outer side, 2 acyl side, 3 side chain; linkers in the order of their positions; H or OH if unused. Non-standard residues stand in square brackets, D forms with d. Groups on a side chain read outwards from the residue. *: point of attachment. C20 diacid = O=C(O)CCCCCCCCCCCCCCCCCCC(=O)*; C16 diacid = O=C(O)CCCCCCCCCCCCCCC(=O)*; γGlu = O=C(O)[C@H](CCC(=O)[*:2])N[*:1]; AEEA = NCCOCCOCC(=O)O; Aib = CC(C)(N)C(=O)O
Listed below: EC50 values for each entry.
measurement-kind: EC50 (pM)

1. H-H[Aib]EGTFTSDVSSYLEEQAARK([AEEA-AEEA-γGlu-C16 diacid])FIEWLVRGK([AEEA-AEEA-γGlu-C16 diacid])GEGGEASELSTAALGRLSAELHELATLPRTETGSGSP-NH2 [Compound 0086]; 3.9
2. H-H[Aib]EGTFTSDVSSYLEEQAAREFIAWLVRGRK([AEEA-AEEA-γGlu-C20 diacid])GGGGSGGGEASELSTAALGRLSAELHELATLPRTETGSGSP-NH2 [Compound 0638]; 4.6
3. H[Aib]EGTFTSDVSSYLEEQAARK([AEEA-AEEA-γGlu-C16 diacid])FIAWLVRGK([AEEA-AEEA-γGlu-C16 diacid])GGGEASELSTAALGRLSAELHELATLPRTETGSGSP-NH2 [Compound 0076]; 1.7
